ASSAY_PROCEDURE: qHTS for Inhibitors of human tyrosyl-DNA phosphodiesterase 1 (TDP1): qHTS in cells in absence of CPT; also: nearly all actives have a fitted effect of over 55% in size; also: potency is read from the fitted curve at half-maximal effect
CONDITION_LABEL: DT40 Tdp1-/- hTDP1 cells, no CPT, ATP luminescence, 48 h
Among all 420,000 compounds or so, about 64,000 (15%) were called active. Another 27% or so got no clear call; they are omitted. A selection follows.
QUANTITY_KIND: Potency

• CCn1cc(C(=O)NCc2ccc(C)cc2)c(=O)c2cc(S(=O)(=O)N3CCc4ccccc4C3)ccc21 = 11.6 µM (active)
• CCOc1ccc(CNC(=O)c2cc(=O)[nH]c3ccc(S(=O)(=O)N4CCCCC4)cc23)cc1 = inactive
• CCOc1cc2[nH]c(=O)n(CCC(=O)NCc3ccc(OC)cc3)c(=O)c2cc1OCC = inactive
• COc1ccccc1Cc1c(-c2ccc(Cl)cc2)nc2c3ccccc3ccn12 = 20.6 µM (active)
• Cc1cc(OCc2ccc(C(=O)Nc3ccc(C(=O)O)cc3)o2)ccc1Cl = inactive

----------
ASSAY_PROCEDURE: qHTS for Inhibitors of human tyrosyl-DNA phosphodiesterase 1 (TDP1): qHTS in cells in absence of CPT; also: nearly all actives have a fitted effect of over 55% in size; also: potency is read from the fitted curve at half-maximal effect
CONDITION_LABEL: DT40 Tdp1-/- hTDP1 cells, no CPT, ATP luminescence, 48 h
Screen size: about 420,000 compounds; about 64,000 (15%) were called active. Not shown: some 27% with an inconclusive outcome. A selection follows.
QUANTITY_KIND: Potency

- CCN1CCC2(CC1)N=C(c1ccc(F)cc1)C(=S)N2C(=O)c1ccc(C)cc1: 5.8 µM (active)
- COc1ccc(NC(=O)CSc2nc(SC)ns2)c(OC)c1: inactive
- NC(=O)c1nnsc1-c1ccc(-c2snnc2C(N)=O)cc1: inactive
- COCCn1c(SCC(=O)Nc2ccccc2F)nc2c(c1=O)SCC2: inactive
- NS(=O)(=O)c1ccc(NC(=S)N2CCCC2)cc1: inactive
- O=S(=O)(c1cccc(C(F)(F)F)c1)N1CCN(c2nc(-c3cccs3)nc3ccccc23)CC1: inactive

----------
ASSAY_PROCEDURE: qHTS for Inhibitors of human tyrosyl-DNA phosphodiesterase 1 (TDP1): qHTS in cells in absence of CPT; also: nearly all actives have a fitted effect of over 55% in size; also: potency is read from the fitted curve at half-maximal effect
CONDITION_LABEL: DT40 Tdp1-/- hTDP1 cells, no CPT, ATP luminescence, 48 h
Out of some 420,000 compounds screened, about 64,000 (15%) were called active. Another 27% or so got no clear call; they are omitted. Not all results are given here.
QUANTITY_KIND: Potency

* Cc1c(Cl)cccc1NC(=S)NCC(O)c1ccccc1 (centres undefined) | inactive
* CCCCN1C(=O)/C(=C/C=C2/C=Cc3ccccc3N2CC)SC1=S | 8.2 µM (active)
* CCO[C@H]1OC(C(=O)N2CCCCCCC2)=C[C@@H](c2ccc(C(F)(F)F)cc2)[C@@H]1CCCO | 20.6 µM (active)
* COc1ccc(CCNS(=O)(=O)c2ccc(F)cc2)cc1OC | inactive
* CCCN1C(=O)C(NC(C)=O)c2cc(OC)ccc21 (centres undefined) | 18.4 µM (active)
* C=CCn1c(SCC(=O)NCc2ccccc2)nnc1-c1cc(Br)ccc1O | inactive
* Cc1cc([N+](=O)[O-])ccc1NS(=O)(=O)c1ccccc1 | 23.1 µM (active)
* O=[N+]([O-])c1cccc(S(=O)(=O)N2CCCCCC2)c1 | inactive
* COc1cc(-c2nc(-c3ccncc3)no2)cc(OC)c1OC | inactive
* Cc1cccc(N(C)C(=O)CS(=O)(=O)c2cccc3nsnc23)c1 | inactive
* Cc1ccc(S(=O)(=O)n2cccc2CO)cc1 | inactive
* O=[N+]([O-])c1ccc(NS(=O)(=O)c2ccccc2)c(Cl)c1 | 20.6 µM (active)
* CN1C=CC=C/C1=C1\SC(=S)N(Cc2ccccc2)C1=O | inactive
* CC(C)Cc1nnc(NC(=O)CCNC(=O)c2ccccc2Cl)s1 | inactive

----------
ASSAY_PROCEDURE: qHTS for Inhibitors of human tyrosyl-DNA phosphodiesterase 1 (TDP1): qHTS in cells in absence of CPT; also: nearly all actives have a fitted effect of over 55% in size
CONDITION_LABEL: DT40 Tdp1-/- hTDP1 cells, no CPT, ATP luminescence, 48 h
Hit rate of the full screen: of about 420,000 compounds, about 64,000 (15%) were called active. Inconclusive results (about 27%) are left out. Calls come from the whole dose curve; as a rule, active = well fitted inhibition curve with a large enough effect; inconclusive = small, poorly fitted or top-dose-only effect; inactive = flat fitted curve, though single readings scatter. Not all results are given here.
Outcome codes: active, inactive

* Cc1cc2nc(-c3ccc(F)cc3)c(Cc3ccsc3)n2c(C)c1Br | active
* N#Cc1c(-c2ccccc2)cc(-c2ccccc2)nc1SCC(=O)O | inactive
* CCCCn1c(SCc2ncc(-c3ccccc3)o2)nc2cc(S(N)(=O)=O)ccc21 | active
* CSc1nc2sc3c(c2c(=O)[nH]1)CCc1ccccc1-3 | inactive

----------
ASSAY_PROCEDURE: qHTS for Inhibitors of human tyrosyl-DNA phosphodiesterase 1 (TDP1): qHTS in cells in absence of CPT; also: nearly all actives have a fitted effect of over 55% in size
CONDITION_LABEL: DT40 Tdp1-/- hTDP1 cells, no CPT, ATP luminescence, 48 h
Out of some 420,000 compounds screened, about 64,000 (15%) were called active. Not shown: some 27% with an inconclusive outcome. The call rests on the fitted dose curve; in most records, active means well fitted inhibition curve with a large enough effect; inconclusive means small, poorly fitted or top-dose-only effect; inactive means flat fitted curve, though single readings scatter. Only a sample is shown.
Outcome codes: active, inactive

• Cc1ccc(NC(=O)C2CC2c2ccccc2)cc1 (centres undefined) = inactive
• Fc1ccc2[nH]c3c(N4CCN(Cc5ccc6c(c5)OCO6)CC4)ncnc3c2c1 = active
• CCN(CC)c1ccc(NC(=O)Cn2nc3c(cc2=O)CCCC3)c(C)c1 = inactive
• COCCN(CCOC)c1nc(N)c2c(N)nc3c(c2c1C#N)CC(=O)N3Cc1ccc(Cl)cc1 = inactive
• CN1CC(=O)N=C1N = inactive
• CCCC1C(c2ccccc2)C(C#N)(C#N)C2(C#N)CC1(N)NC2=O (centres undefined) = inactive
• CN(C(=O)c1ccccc1)c1nccnc1C#N = inactive
• O=C1NCC(c2ccccc2)(c2ccccc2)C(=O)N1 = inactive
• O=C(Nc1cccc(C(F)(F)F)c1)c1cc(Br)cc(Br)c1O = active
• CC1=Nn2c(nnc2-c2ccccc2)SC1 = inactive
• CC(C)(C)OC(=O)CNC(=O)c1[nH]cnc1C(=O)N[C@@H](CCCCN)C(=O)OC(C)(C)C = inactive
• CC1C/C(=N/NC(=O)c2cccs2)CC(C)(C)C1 (centres undefined) = inactive
• CC1(c2ccc(Cl)cc2Cl)NC(=O)N(CC(=O)Nc2cccnc2Cl)C1=O (centres undefined) = inactive
• Cn1c(=O)c2c(nc(CN3CCOCC3)n2Cc2ccccc2)n(C)c1=O = inactive
• O=C(O)C1CCCN(CCC=C(c2ccccc2)c2ccccc2)C1 (centres undefined) = inactive
• COCCn1c(CN2CCC(Cc3ccccc3)CC2)nc2c1c(=O)n(C)c(=O)n2C = active
• COc1ccc(NC(=O)/C(N=Nc2cccc(S(=O)(=O)Nc3ccc(SC(F)F)cc3)c2)=C(\C)O)cc1 = inactive
• CC(=O)Nc1cccc(C(=O)OCN2C(=O)c3ccccc3C2=O)c1 = inactive
• COc1ccc(S(=O)(=O)N2CCN(CC(=O)N3c4ccccc4CC3C)CC2)cc1OC (centres undefined) = inactive
• Cc1ccc(Cn2c(C)nc3c(c2=O)c2nc4ccccc4nc2n3Cc2ccco2)cc1 = active
• O=C(CSc1nc2c(c(=O)[nH]1)CN(Cc1ccc3c(c1)OCO3)CC2)Nc1cc(F)ccc1F = inactive
• Cc1ccc(CNC(=O)CCC(=O)N2CC(C)Sc3ccccc32)cc1 (centres undefined) = inactive
• CC(=O)NC(CC(=O)Nc1nccs1)c1ccccc1 (centres undefined) = inactive
• N#C/C=C/N1CCN(Cc2ccc3c(c2)OCO3)CC1 = inactive
• Fc1ccc2nc(N3CCCCC3)sc2c1 = inactive
• Cn1nnnc1SCC(=O)N1CCN(Cc2ccccc2)CC1 = inactive
• CCc1ccc(NC(=O)COC(=O)c2cccs2)cc1 = inactive
• CCCCN1C(=O)C(=O)N(CC(=O)Nc2cccc(C(C)=O)c2)C1=O = inactive
• COc1ccc(-c2ccc(CN3C(CC(C)C)C(=O)N(Cc4cn(CC5CCCCC5)nn4)CCS3(=O)=O)cc2)cn1 (centres undefined) = active
• CCCN(CCC)C(=S)Nc1cc(C(=O)OC)ccc1C(=O)OC = active
• Cc1ccc(C(=O)N2CCN(S(=O)(=O)N3CCOCC3)CC2)cc1 = inactive
• CC(=O)c1cccc(NC(=O)CN2C(=O)c3cccnc3Oc3ccc(Cl)cc32)c1 = active
• Cc1ccc2c(c1)N(CC(=O)NCCc1ccc(Cl)cc1)C(=O)c1cccnc1O2 = active
• CCc1nnc(NS(=O)(=O)c2ccc(NS(=O)(=O)c3ccccc3)cc2)s1 = inactive
• COc1ccc(-c2ccc(CN3C(CC(C)C)C(=O)N(Cc4cn(CC5CCCCC5)nn4)CCS3(=O)=O)cc2)cc1 (centres undefined) = active
• Cc1ccc2[nH]c3c(=O)n(CC(=O)NCCc4ccc(Cl)cc4)ncc3c2c1 = inactive
• CCc1nnc(NS(=O)(=O)c2ccc(N=Cc3c(C)[nH]n(-c4ccc(C)cc4)c3=O)cc2)s1 = active
• COc1ccc(-c2ccc(CN3C(C(C)C)C(=O)N(Cc4cn(CC5CCCCC5)nn4)CCS3(=O)=O)cc2)cn1 (centres undefined) = active
• CC(C)CN(C(=O)CN1CCN(S(=O)(=O)c2ccccc2)CC1)c1c(N)n(CC(C)C)c(=O)[nH]c1=O = inactive
